System: Mycobacterium tuberculosis Erdman (autoluminescent)
procedure.summary: total FIC50 (Loewe) at 50% inhibition, three-drug combination (log2); higher = more antagonistic
assay.conditions: in vitro model: cholesterol-high 0.2 mM; time point: constant (~7 days, model-specific)
measured.attribute: total FIC50
No unit in the answer, please; the number alone is enough.

Query: Value lookup for total FIC50; key = CC(C)/N=c1\cc2n(-c3ccc(Cl)cc3)c3ccccc3nc-2cc1Nc1ccc(Cl)cc1 [clofazimine] + CC(=O)NC[C@H]1CN(c2ccc(N3CCOCC3)c(F)c2)C(=O)O1 [linezolid] + CO[C@H]1/C=C/O[C@@]2(C)Oc3c(C)c(O)c4c(O)c(c(/C=N/N5CCN(C6CCCC6)CC5)c(O)c4c3C2=O)NC(=O)/C(C)=C\C=C\[C@H](C)[C@H](O)[C@@H](C)[C@@H](O)[C@@H](C)[C@H](OC(C)=O)[C@@H]1C [rifapentine]
Reply: 0.312

Query: Next: COc1nc2ccc(Br)cc2cc1[C@@H](c1ccccc1)[C@@](O)(CCN(C)C)c1cccc2ccccc12 [bedaquiline] + CC(=O)NC[C@H]1CN(c2ccc(N3CCOCC3)c(F)c2)C(=O)O1 [linezolid] + CO[C@H]1/C=C/O[C@@]2(C)Oc3c(C)c(O)c4c(O)c(c(/C=N/N5CCN(C)CC5)c(O)c4c3C2=O)NC(=O)/C(C)=C\C=C\[C@H](C)[C@H](O)[C@@H](C)[C@@H](O)[C@@H](C)[C@H](OC(C)=O)[C@@H]1C [rifampicin]
Reply: 0.47

Query: Next: CC(C)/N=c1\cc2n(-c3ccc(Cl)cc3)c3ccccc3nc-2cc1Nc1ccc(Cl)cc1 [clofazimine] + CC[C@@H](CO)NCCN[C@@H](CC)CO [ethambutol] + NC(=O)c1cnccn1 [pyrazinamide]
Reply: 0.509
